Target: human GLP-1R (Homo sapiens)
Construct: host or cells: COS-7
Sequence (P43220 24-463): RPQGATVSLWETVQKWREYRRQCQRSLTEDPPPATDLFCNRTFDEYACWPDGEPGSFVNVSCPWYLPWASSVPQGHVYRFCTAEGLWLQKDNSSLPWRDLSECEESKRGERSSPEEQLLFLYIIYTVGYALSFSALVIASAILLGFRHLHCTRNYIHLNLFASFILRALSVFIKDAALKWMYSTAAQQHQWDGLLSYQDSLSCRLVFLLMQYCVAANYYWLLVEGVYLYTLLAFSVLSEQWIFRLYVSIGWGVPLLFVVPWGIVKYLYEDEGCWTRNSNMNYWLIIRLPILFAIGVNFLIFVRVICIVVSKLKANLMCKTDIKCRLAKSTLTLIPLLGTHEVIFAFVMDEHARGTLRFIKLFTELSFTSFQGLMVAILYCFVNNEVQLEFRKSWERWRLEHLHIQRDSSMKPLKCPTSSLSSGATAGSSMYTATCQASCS
Experiment: HitHunter cAMP assay in transiently transfected COS-7 cells, human GLP-1R
Assay type: cell-based
Conditions: Emax normalized to highest concentration of endogenous ligand; Table 3
readoutKind: Efficacy GLP-1R

>  <substance>
(C16)HADGTFISDYSTILELLAARDFINWLIQTKITKNDWKHNITQ [Compound no. 15]

>  <measuredOn>
human GLP-1R (Homo sapiens)

>  <measValue>
0

$$$$
>  <substance>
(C16)H-Aib-DGTFISDYSTILDNLAARDFIEWLIQTKITK-OH [Compound no. 7]

>  <measuredOn>
human GLP-1R (Homo sapiens)

>  <measValue>
13

$$$$
>  <substance>
H-Aib-DG-K(γGlu-C16)-FISDYSTILDNLAARDFINWLIQTKITK-OH [Compound no. 9]

>  <measuredOn>
human GLP-1R (Homo sapiens)

>  <measValue>
32

$$$$
>  <substance>
(C10-diacid)H-Aib-DGTFISDYST-Aib-LDNLAARDFINWLIQTKITK-OH [Compound no. 18]

>  <measuredOn>
human GLP-1R (Homo sapiens)

>  <measValue>
10

$$$$
>  <substance>
H-Aib-DGTFISDY-K(γGlu-C16)-T-Aib-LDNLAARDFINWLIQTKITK-OH [Compound no. 29]

>  <measuredOn>
human GLP-1R (Homo sapiens)

>  <measValue>
0

$$$$
>  <substance>
Ac-H-Aib-DGTFISDYS-K(γGlu-C16)-Aib-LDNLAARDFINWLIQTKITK-OH [Compound no. 36]

>  <measuredOn>
human GLP-1R (Homo sapiens)

>  <measValue>
19

$$$$
>  <substance>
H-Aib-DG-K(γGlu- γGlu-C16)-FISDYST-Aib-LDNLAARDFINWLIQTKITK-OH [Compound no. 28]

>  <measuredOn>
human GLP-1R (Homo sapiens)

>  <measValue>
14

$$$$
>  <substance>
H-Aib-DGTFISDY-K(γGlu-C16)-TILDNLAARDFINWLIQTKGKKNDWKHNITQ-NH2 [Compound no. 14]

>  <measuredOn>
human GLP-1R (Homo sapiens)

>  <measValue>
0

$$$$

* * *

Biological target: human GIPR (Homo sapiens, UniProt P48546)
Sequence (P48546 22-466): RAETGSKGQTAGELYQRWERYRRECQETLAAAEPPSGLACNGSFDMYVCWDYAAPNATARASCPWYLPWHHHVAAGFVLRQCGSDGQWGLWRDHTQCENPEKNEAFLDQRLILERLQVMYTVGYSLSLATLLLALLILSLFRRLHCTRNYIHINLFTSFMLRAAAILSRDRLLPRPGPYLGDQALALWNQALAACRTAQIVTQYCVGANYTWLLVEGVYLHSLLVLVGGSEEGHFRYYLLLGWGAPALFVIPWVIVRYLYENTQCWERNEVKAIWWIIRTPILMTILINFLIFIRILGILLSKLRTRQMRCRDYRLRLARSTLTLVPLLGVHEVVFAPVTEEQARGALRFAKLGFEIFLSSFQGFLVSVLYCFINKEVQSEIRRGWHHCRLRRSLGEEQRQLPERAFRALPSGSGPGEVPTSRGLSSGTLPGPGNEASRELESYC
Assay type: cell-based
Design: host or cells: COS-7
Details: Emax normalized to highest concentration of endogenous ligand; Table 2

>  <substance>
Ac-H-Aib-DGTFISDY-K(γGlu-C16)-T-Aib-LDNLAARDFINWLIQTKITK-OH [Compound no. 34]

>  <measuredOn>
human GIPR (Homo sapiens, UniProt P48546)

>  <Efficacy GIPR>
75

$$$$
>  <substance>
(C16-diacid)H-Aib-DGTFISDYST-Aib-LDKLAARDFIEWLIQTKITK-OH [Compound no. 22]

>  <measuredOn>
human GIPR (Homo sapiens, UniProt P48546)

>  <Efficacy GIPR>
91

$$$$
>  <substance>
H-Aib-DGTFISDY-K(γGlu-C10)-TILDKLAARDFIEWLIATKITK-OH [Compound no. 31]

>  <measuredOn>
human GIPR (Homo sapiens, UniProt P48546)

>  <Efficacy GIPR>
89

$$$$
>  <substance>
(C16)HADGTFISDYSTILDNLAARDFINWLLAQKITK [Compound no. 46]

>  <measuredOn>
human GIPR (Homo sapiens, UniProt P48546)

>  <Efficacy GIPR>
98

$$$$
